measured-target: EGLN2
protocol: cell-based or functional assay
Where no end group is shown, it is not given here.
Records here are stratified by Activity (%)*; strata: low bin: < 30%; mid bin: ≥ 30% and < 40%; high bin: ≥ 40%

Example entries begin here.
{"columns": ["binder", "group-label"],
 "data": [
  ["DTDLDPEALAPYIPADDDFQ (not fully specified; printed as DTDLDPEALApYIPADDDFQ) [DTDLDPEALApYIPADDDFQ]", "mid bin"],
  ["DTDLDTEAYAPYIPADDDFQ (not fully specified; printed as DTDLDTEAYApYIPADDDFQ) [DTDLDTEAYApYIPADDDFQ]", "low bin"],
  ["DTDLDIEAVAPYIPADDDFQ [DTDLDIEAVApYIPADDDFQ]", "low bin"],
  ["DTDLDLEAGAPYIPADDDFQ [DTDLDLEAGApYIPADDDFQ]", "low bin"],
  ["DTDLDVEAFAPYIPADDDFQ (not fully specified; printed as DTDLDVEAFApYIPADDDFQ) [DTDLDVEAFApYIPADDDFQ]", "mid bin"]
]}

Input line: Looking at DTDLDIEALAPYIPADDDFQ [DTDLDIEALApYIPADDDFQ] , which class would you pick?
Output line: high bin

Input line: Dear colleague, I would appreciate it if you could identify the bin for DTDLDLEMLLPYIPMDDDFQ (not fully specified; printed as DTDLDLEMLLpYIPMDDDFQ) [DTDLDLEMLLpYIPMDDDFQ] and reply at your convenience.
Output line: low bin

Input line: Each binder maps to one class by Activity (%)*. Which class for DTDLDGEALAPYIPADDDFQ [DTDLDGEALApYIPADDDFQ] ?
Output line: mid bin

Input line: Exam item: assign DTDLDLEATAPYIPADDDFQ [DTDLDLEATApYIPADDDFQ] to the correct category.
Output line: high bin

Input line: Please indicate the class for DTDLDVEALAPYIPADDDFQ (not fully specified; printed as DTDLDVEALApYIPADDDFQ) [DTDLDVEALApYIPADDDFQ] based on its Activity (%)*.
Output line: low bin

Input line: Which Activity (%)* band matches DTDLDLEAYAPYIPADDDFQ (not fully specified; printed as DTDLDLEAYApYIPADDDFQ) [DTDLDLEAYApYIPADDDFQ] ?
Output line: high bin
